Measured ML290-mediated cAMP accumulation after inhibitor, listed per entry.
Test system: ML290-mediated cAMP accumulation
TEST: Effect of signalling pathway inhibitors on ML290-mediated cAMP accumulation in human primary vascular cells
Assay type: cell-based
PROTOCOL_CONDITIONS: HUVSMCs; NF449 10 μM, NF023 10 μM, mSIRK 5 μM, L9A 5 μM, gallein 50 μM, Wortmannin 100 nM; 30 min

Some solved cases for reference:
O=C(Nc1cc(C(=O)Nc2ccc(S(=O)(=O)O)cc2S(=O)(=O)O)cc(C(=O)Nc2ccc(S(=O)(=O)O)cc2S(=O)(=O)O)c1)Nc1cc(C(=O)Nc2ccc(S(=O)(=O)O)cc2S(=O)(=O)O)cc(C(=O)Nc2ccc(S(=O)(=O)O)cc2S(=O)(=O)O)c1 [NF449]	4.7 ± 2.5 % response to 50 μM forskolin
COC[C@H]1OC(=O)c2coc3c2[C@@]1(C)C1=C(C3=O)[C@@H]2CCC(=O)[C@@]2(C)C[C@H]1OC(C)=O [Wortmannin]	6.4 ± 2.2 % response to 50 μM forskolin

In: Quote ML290-mediated cAMP accumulation after inhibitor reported for O=C1OC2(c3ccccc31)c1ccc(O)c(O)c1Oc1c2ccc(O)c1O [gallein] please.
Out: 3.2 ± 3.4 % response to 50 μM forskolin
